Entries and their Population Membrane Permeable-Phenotype (%) values follow.
- Test system: Fibroblast
- assay_info: Multiplex assay against human fibroblast
- Format: toxicity, cell-based
- test_settings: 12 h, 1 µM, compound concentration 1 uM, replicate 1
Please give a number only; it is taken to be in %.

Record excerpt, results attached:
1. Cc1c(Cc2ccc3ccccc3n2)c2cc(F)ccc2n1CC(=O)O : 1
2. COc1c(Nc2ccc(S(C)(=O)=O)nc2C)ncnc1OC1CCN(C(=O)OC(C)C)CC1 : 0
3. CN1CCN(c2ccc(Nc3c4ccccc4nc4ccccc34)cc2)CC1.Cl.Cl.O : 0
4. Cc1sc2c(c1C)C(c1ccc(Cl)cc1)=N[C@H](CC(=O)OC(C)(C)C)c1nnc(C)n1-2 : 0
5. Cl.Cl.OCCOCCN1CCN(C(c2ccccc2)c2ccc(Cl)cc2)CC1 (centres undefined) [HYDROXYZINE HYDROCHLORIDE] : 0
6. COc1cc(Nc2ncc3c(n2)-c2ccc(Cl)cc2C(c2c(F)cccc2OC)=NC3)ccc1C(=O)O : 2
7. CC(C)C[C@H](CO)Nc1nc(S[C@@H](C)c2ccccc2)nc2nc(N)sc12 : 3
8. CN(C)C(=O)Cn1cc(-c2ccc(-c3nnc4ccccn34)cc2)cn1 : 1

Here's the next entry for you.
Query string: Population Membrane Permeable-Phenotype (%) for COCCn1c(C)c(C)s/c1=N\C(=O)C1C(C)(C)C1(C)C ?
Result string: 0

====

- Tested on: U2OS
- assay_info: Multiplex assay against U2OS
- Assay type: toxicity, cell-based
- test_settings: human, 24 h, 10 µM, compound concentration 10 uM, replicate 2
Entries and their Population Mitotic Cells (%) values follow.
Please give a number only; it is taken to be in %.

Record excerpt, results attached:
1. COc1ccc2[nH]c(I)c(CCNC(C)=O)c2c1 : 11
2. Cc1c(Cc2ccc3ccccc3n2)c2cc(F)ccc2n1CC(=O)O : 27
3. CC(C)(O)C(=O)N1CCN(c2ccc(C(F)(F)F)c(C3=C(c4c[nH]c5ccccc45)C(=O)NC3=O)c2)CC1 : 29

Query string: Population Mitotic Cells (%) for COc1cc(OC2CCN(C(C)=O)CC2)ccc1C(=O)N1CCC(N2C(=O)OCc3ccccc32)CC1 ?
Result string: 28

Query string: Population Mitotic Cells (%) for O=c1nc2[nH]c3ccccc3nc-2c(=O)[nH]1 ?
Result string: 25

====

- System: U2OS
- assay_info: Multiplex assay against U2OS
- Format: toxicity, cell-based
- test_settings: human, 12 h, 1 µM, compound concentration 1 uM, replicate 1
Non-standard residues stand in square brackets, D forms with d. Residues, ends and D or L forms follow the SMILES beside them.
property: Total Cell Count
A bare number is all that is needed in reply.

Record excerpt, results attached:
1) CC(C)C[C@@H]1NC(=O)[C@@H](C(C)C)NC(=O)[C@@H]2CCCN2C(=O)[C@@H](CC(=O)O)NC(=O)[C@@H](Cc2c[nH]c3ccccc23)NC1=O [BQ-123] (cyclo(L[dW][dD]P[dV])) : 228
2) CCC(=O)OCC(=O)[C@@]1(OC(=O)CC)[C@@H](C)C[C@H]2[C@@H]3CCC4=CC(=O)C=C[C@]4(C)[C@@]3(Cl)[C@@H](O)C[C@@]21C [BECLOMETHASONE DIPROPIONATE] : 160
3) CCc1nn2c(C)cc(C)nc2c1Cc1ccc(-c2nnc(C3CCNCC3)o2)cc1 : 251
4) COCCCN1CCC(NC(=O)c2cc(Cl)c(N)c3c2OCC3)CC1 [PRUCALOPRIDE] : 207
5) Cc1cc(=O)n(C)c2cc(N3C(=O)CC[C@H](NS(=O)(=O)CC(C)C)[C@H]3c3ccc(Cl)cc3)ccc12 : 263
6) O=C(O)CCC/C=C\CC1C(O)CC(O)C1/C=C/C(O)COc1cccc(Cl)c1 (stereo unspecified) : 201
7) CN1CCN2c3ccccc3Cc3ccccc3C2C1.Cl (stereo unspecified) [MIANSERIN HYDROCHLORIDE] : 162
8) CC(C)(C)c1ccc(CSc2cnn(C(C)(C)C)c(=O)c2Cl)cc1 : 267
9) C=CCN1C[C@H](C(=O)N(CCCN(C)C)C(=O)NCC)C[C@@H]2c3cccc4[nH]cc(c34)C[C@H]21 : 228
10) CCn1c(-c2nc3cc(C(=O)N4CCCC(N)C4)ccc3n2C)cc2ccccc21.Cl (stereo unspecified) : 213

Query string: Total Cell Count for O=c1nc2[nH]c3ccccc3nc-2c(=O)[nH]1 ?
Result string: 195

====

- Test system: Fibroblast
- assay_info: Multiplex assay against human fibroblast
- Type: toxicity, cell-based
- test_settings: 48 h, 10 µM, compound concentration 10 uM, replicate 1
property: Population Apoptotic (%)
The reply should read as a number followed by its unit.

1) CC(C)C[C@H](CO)Nc1nc(S[C@@H](C)c2ccccc2)nc2nc(N)sc12 : 60%
2) CSc1nc(NC2CCCC2)c([N+](=O)[O-])c(NC2CCCC2)n1 : 66%
3) CN1C[C@H](C(=O)N[C@]2(C)O[C@@]3(O)[C@@H]4CCCN4C(=O)[C@H](Cc4ccccc4)N3C2=O)C[C@@H]2c3cccc4[nH]cc(c34)C[C@H]21.CS(=O)(=O)O [DIHYDROERGOTAMINE MESYLATE] : 63%
4) O=c1nc2[nH]c3ccccc3nc-2c(=O)[nH]1 : 55%

Query string: Reported Population Apoptotic (%) for Fibroblast, given Nc1nc(-c2ccco2)c2cnn(Cc3ccccc3F)c2n1 ?
Result string: 80%

Query string: Reported Population Apoptotic (%) for Fibroblast, given O=c1ccc2ccc(OCCCCN3CCN(c4cccc5sccc45)CC3)cc2[nH]1 ?
Result string: 62%

Query string: Reported Population Apoptotic (%) for Fibroblast, given Nc1nc(CC(=O)Nc2ccc(CCNC[C@H](O)c3ccccc3)cc2)cs1 ?
Result string: 64%

Query string: Reported Population Apoptotic (%) for Fibroblast, given CCCCCCNC(=O)Nc1ccc(S(=O)(=O)Nc2ccc(CCNC[C@H](O)COc3ccc(O)cc3)cc2)cc1 ?
Result string: 79%

====

- Tested on: Fibroblast
- assay_info: Multiplex assay against human fibroblast
- Type: toxicity, cell-based
- test_settings: 12 h, 10 µM, compound concentration 10 uM, replicate 2
Just so you know, the groups by Population Hoechst High Intensity Objects (%) go like this: range 1 (below 5%), range 2 (5% to below 8%), range 3 (8% or more)

Query string: Please let me know in which category the item Cl.Cl.OCCOCCN1CCN(C(c2ccccc2)c2ccc(Cl)cc2)CC1 (stereo not given) [HYDROXYZINE HYDROCHLORIDE] belongs.
Result string: range 2

Query string: Please let me know in which category the item Nc1nc(-c2ccco2)c2cnn(Cc3ccccc3F)c2n1 belongs.
Result string: range 3

Query string: Please let me know in which category the item O=C(Nc1cc(-c2ccccc2)nn1-c1ccccc1F)c1ccc([N+](=O)[O-])cc1 belongs.
Result string: range 2

Query string: Please let me know in which category the item C[C@@H]1CC(=O)Nc2cccc(-c3ccc4c(c3)c(-c3cnn(C)c3)nn4C)c2N1 belongs.
Result string: range 2

Query string: Please let me know in which category the item CCc1nn2c(C)cc(C)nc2c1Cc1ccc(-c2nnc(C3CCNCC3)o2)cc1 belongs.
Result string: range 1

Query string: Please let me know in which category the item COCCn1c(C)c(C)s/c1=N\C(=O)C1C(C)(C)C1(C)C belongs.
Result string: range 2

Query string: Please let me know in which category the item O=C(O)CCC/C=C\CC1C(O)CC(O)C1/C=C/C(O)COc1cccc(Cl)c1 (stereo not given) belongs.
Result string: range 1

Query string: Please let me know in which category the item O=c1ccc2ccc(OCCCCN3CCN(c4cccc5sccc45)CC3)cc2[nH]1 belongs.
Result string: range 3

Query string: Please let me know in which category the item CCCCC[C@H](O)/C=C/[C@H]1[C@H](O)CC(=O)[C@@H]1CCCCCCC(=O)O belongs.
Result string: range 3

Query string: Please let me know in which category the item CC(C)(O)C(=O)N1CCN(c2ccc(C(F)(F)F)c(C3=C(c4c[nH]c5ccccc45)C(=O)NC3=O)c2)CC1 belongs.
Result string: range 2

====

Entries and their Population Apoptotic (%) values follow.
- Tested on: Fibroblast
- assay_info: Multiplex assay against human fibroblast
- Type: toxicity, cell-based
- test_settings: 12 h, 10 µM, compound concentration 10 uM, replicate 1
Non-standard residues stand in square brackets, D forms with d. Residues, ends and D or L forms follow the SMILES beside them.
Please give a number only; it is taken to be in %.

Record excerpt, results attached:
1. O=C(Nc1cc(-c2ccccc2)nn1-c1ccccc1F)c1ccc([N+](=O)[O-])cc1 : 28
2. Cn1cc(C(=O)OCC2CCN(CCNS(C)(=O)=O)CC2)c2ccccc21 : 48
3. N[C@](CC1c2ccccc2Oc2ccccc21)(C(=O)O)[C@H]1C[C@@H]1C(=O)O : 50
4. CC(C)C[C@@H]1NC(=O)[C@@H](C(C)C)NC(=O)[C@@H]2CCCN2C(=O)[C@@H](CC(=O)O)NC(=O)[C@@H](Cc2c[nH]c3ccccc23)NC1=O [BQ-123] (cyclo(L[dW][dD]P[dV])) : 48
5. CN1CCN2c3ccccc3Cc3ccccc3C2C1.Cl (stereo not drawn) [MIANSERIN HYDROCHLORIDE] : 55

Query string: Population Apoptotic (%) for CN1CCC(C(=O)c2cccc(NC(=O)c3c(F)cc(F)cc3F)n2)CC1 ?
Result string: 32

Query string: Population Apoptotic (%) for Cl.Cl.OCCOCCN1CCN(C(c2ccccc2)c2ccc(Cl)cc2)CC1 (stereo not drawn) [HYDROXYZINE HYDROCHLORIDE] ?
Result string: 47

Query string: Population Apoptotic (%) for CCn1c(-c2nc3cc(C(=O)N4CCCC(N)C4)ccc3n2C)cc2ccccc21.Cl (stereo not drawn) ?
Result string: 41
